Provenance of the data: ChEMBL document CHEMBL5543124

# Tested on: PANC-1
# Test: Cytotoxicity against SiRNA mediated SRC-3.1 knockdown human PANC-1 cells assessed as inhibition of cell growth incubated for 72 hrs by MTT assay
# Format: functional, cell-based
# Applied conditions: PANC-1, 72 h
Value kind: pIC50
The meaning of pIC50 here: minus log10 of the concentration in molar units.

For reference, reported pIC50 for C/C(=N\N=c1/[nH]c2cc(F)c(F)cc2n1C)c1ccc(F)cn1 stands at 6.83

====

# Tested on: CYP1A2
# Test: Stability in human liver microsomes assessed as CYP1A2-mediated drug metabolism incubated for 1 hr
# Type: ADME, Microsome
# Applied conditions: read-out: Drug metabolism
Value kind: metabolised at 1 h (%)
Provide only the numeric value, understood in %.

For reference, reported metabolised at 1 h for C/C(=N\Nc1nc2cc(F)c(F)cc2n1C)c1ncccn1 stands at 98

====

# Test system: BT-474
# Test: Cytotoxicity against human BT-474 cells assessed as inhibition of cell growth incubated for 72 hrs by MTT assay
# Type: functional, cell-based
# Applied conditions: BT-474, 72 h
Exercise: for every item that follows, state its recorded pIC50.
The meaning of pIC50 here: minus log10 of the concentration in molar units.

For reference, reported pIC50 for C/C(=N\N=c1/[nH]c2cc(F)c(F)cc2n1C)c1ccc(F)cn1 stands at 9.10

For reference, reported pIC50 for C/C(=N\N=c1/[nH]c2cc(F)c(F)cc2n1C)c1ncccn1 stands at 9.00

====

# Test: Half life in human liver microsomes at 1 uM incubated for 30 mins in presence of NADPH by LC-MS/MS analysis
# Assay type: ADME, Microsome
# Applied conditions: 0.5 h
Simple rule here: t1/2 less than 6 min is Yes, otherwise No.

Prompt: In the record for C/C(=N\N=c1/[nH]c2cc(F)c(F)cc2n1C)c1ccc(F)cn1 , is t1/2 less than 6 min?
Completion: No

Prompt: In the record for C/C(=N\Nc1nc2cc(F)c(F)cc2n1C)c1ncccn1 , is t1/2 less than 6 min?
Completion: Yes

Prompt: In the record for C/C(=N\Nc1nc2ccccc2n1C)c1ccccn1 , is t1/2 less than 6 min?
Completion: Yes

Prompt: In the record for C/C(=N\Nc1nc2cc(F)ccc2n1C)c1ccc(F)cn1 , is t1/2 less than 6 min?
Completion: Yes

Prompt: In the record for C/C(=N\Nc1nc2ccccc2n1C)c1ccc(F)cn1 , is t1/2 less than 6 min?
Completion: Yes

====

# Study system: Endothelin-1 receptor (Homo sapiens)
# Sequence (P25101 whole entry): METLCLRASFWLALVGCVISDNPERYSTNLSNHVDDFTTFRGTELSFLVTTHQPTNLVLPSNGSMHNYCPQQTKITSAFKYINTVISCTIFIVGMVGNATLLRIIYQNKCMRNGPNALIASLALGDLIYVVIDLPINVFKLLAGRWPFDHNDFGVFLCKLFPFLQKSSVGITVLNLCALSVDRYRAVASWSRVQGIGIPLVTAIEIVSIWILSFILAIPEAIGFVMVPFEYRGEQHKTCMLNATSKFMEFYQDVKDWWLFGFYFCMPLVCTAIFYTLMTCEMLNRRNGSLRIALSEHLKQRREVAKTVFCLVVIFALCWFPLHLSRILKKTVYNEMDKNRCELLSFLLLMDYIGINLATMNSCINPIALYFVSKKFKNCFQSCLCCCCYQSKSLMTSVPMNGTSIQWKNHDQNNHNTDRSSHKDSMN
# Test: Antagonist activity at EDNRA (unknown origin) by calcium flux assay
Value kind: IC50 (µM)
Provide only the numeric value, understood in µM.

For reference, reported IC50 for C/C(=N\N=c1/[nH]c2cc(F)c(F)cc2n1C)c1ccc(F)cn1 stands at 4

====

# Study system: Voltage-gated inwardly rectifying potassium channel KCNH2 (Homo sapiens)
# Sequence (Q12809 whole entry): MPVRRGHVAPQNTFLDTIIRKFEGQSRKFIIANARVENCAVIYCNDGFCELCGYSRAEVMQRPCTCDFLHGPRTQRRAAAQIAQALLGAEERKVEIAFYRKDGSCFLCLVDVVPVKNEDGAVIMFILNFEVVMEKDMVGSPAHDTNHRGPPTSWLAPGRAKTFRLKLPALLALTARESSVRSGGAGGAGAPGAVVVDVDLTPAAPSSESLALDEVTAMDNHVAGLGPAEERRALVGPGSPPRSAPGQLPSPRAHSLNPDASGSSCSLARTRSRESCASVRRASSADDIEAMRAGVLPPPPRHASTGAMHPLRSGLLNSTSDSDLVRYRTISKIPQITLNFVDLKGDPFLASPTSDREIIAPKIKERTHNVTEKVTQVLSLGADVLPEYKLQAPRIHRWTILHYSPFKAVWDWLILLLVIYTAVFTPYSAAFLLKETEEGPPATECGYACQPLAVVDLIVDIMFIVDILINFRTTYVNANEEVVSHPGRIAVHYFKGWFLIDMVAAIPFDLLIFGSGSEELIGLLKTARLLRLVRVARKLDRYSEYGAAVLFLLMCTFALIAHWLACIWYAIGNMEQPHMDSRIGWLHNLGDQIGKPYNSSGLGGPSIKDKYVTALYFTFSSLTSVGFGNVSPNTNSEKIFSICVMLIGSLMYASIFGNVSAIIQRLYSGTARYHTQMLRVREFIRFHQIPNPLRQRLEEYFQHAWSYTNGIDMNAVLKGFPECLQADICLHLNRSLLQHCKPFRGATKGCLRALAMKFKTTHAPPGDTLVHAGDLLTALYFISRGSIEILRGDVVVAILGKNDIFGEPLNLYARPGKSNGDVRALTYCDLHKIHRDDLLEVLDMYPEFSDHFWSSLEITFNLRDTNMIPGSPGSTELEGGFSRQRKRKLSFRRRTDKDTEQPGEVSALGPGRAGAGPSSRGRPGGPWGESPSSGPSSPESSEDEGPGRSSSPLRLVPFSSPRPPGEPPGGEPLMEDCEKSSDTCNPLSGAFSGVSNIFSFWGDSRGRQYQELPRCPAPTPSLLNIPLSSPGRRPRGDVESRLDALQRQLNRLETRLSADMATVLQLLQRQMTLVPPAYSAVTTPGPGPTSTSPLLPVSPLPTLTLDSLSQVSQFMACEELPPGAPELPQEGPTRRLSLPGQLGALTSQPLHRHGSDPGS
# Test: Inhibition of hERG transfected in HEK293 cells by patch clamp assay
# Assay type: toxicity, cell-based
Value kind: pIC50
The meaning of pIC50 here: minus log10 of the concentration in molar units.

For reference, reported pIC50 for C/C(=N\N=c1/[nH]c2cc(F)c(F)cc2n1C)c1ccc(F)cn1 stands at 5.95

====

# Tested on: LNCaP
# Test: Cytotoxicity against human LNCaP cells assessed as inhibition of cell growth incubated for 72 hrs by MTT assay
# Assay type: functional, cell-based
Value kind: pIC50
The meaning of pIC50 here: minus log10 of the concentration in molar units.

Record C/C(=N\N=c1/[nH]c2cc(F)c(F)cc2n1C)c1ncccn1 has LNCaP pIC50 equal to 7.96

====

Exercise: for every item that follows, state its recorded IC50.
# Study system: Prostaglandin G/H synthase 2 (Homo sapiens, UniProt P35354)
# Sequence (P35354 whole entry): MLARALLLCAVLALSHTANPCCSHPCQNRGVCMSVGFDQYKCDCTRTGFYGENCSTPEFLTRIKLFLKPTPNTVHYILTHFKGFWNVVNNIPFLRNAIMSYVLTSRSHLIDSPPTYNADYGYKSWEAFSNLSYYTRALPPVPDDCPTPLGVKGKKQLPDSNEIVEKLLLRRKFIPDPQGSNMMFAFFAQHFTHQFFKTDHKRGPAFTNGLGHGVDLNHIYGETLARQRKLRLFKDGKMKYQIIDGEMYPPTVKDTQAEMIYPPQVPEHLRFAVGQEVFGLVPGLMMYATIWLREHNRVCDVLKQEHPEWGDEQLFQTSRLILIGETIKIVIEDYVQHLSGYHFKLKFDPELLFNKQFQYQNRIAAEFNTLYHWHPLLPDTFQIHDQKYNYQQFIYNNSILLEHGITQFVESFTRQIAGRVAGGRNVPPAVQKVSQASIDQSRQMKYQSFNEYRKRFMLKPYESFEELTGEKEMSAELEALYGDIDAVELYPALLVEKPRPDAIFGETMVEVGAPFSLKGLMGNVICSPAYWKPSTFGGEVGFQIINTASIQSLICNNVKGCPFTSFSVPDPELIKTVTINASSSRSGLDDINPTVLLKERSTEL

For reference, reported IC50 for C/C(=N\Nc1nc2cc(F)c(F)cc2n1C)c1ncccn1 stands at 2.4 µM

For reference, reported IC50 for C/C(=N\N=c1/[nH]c2cc(F)c(F)cc2n1C)c1ccc(F)cn1 stands at 3 µM

====

# Study system: Mu-type opioid receptor (Homo sapiens, UniProt P35372)
# Sequence (P35372 whole entry): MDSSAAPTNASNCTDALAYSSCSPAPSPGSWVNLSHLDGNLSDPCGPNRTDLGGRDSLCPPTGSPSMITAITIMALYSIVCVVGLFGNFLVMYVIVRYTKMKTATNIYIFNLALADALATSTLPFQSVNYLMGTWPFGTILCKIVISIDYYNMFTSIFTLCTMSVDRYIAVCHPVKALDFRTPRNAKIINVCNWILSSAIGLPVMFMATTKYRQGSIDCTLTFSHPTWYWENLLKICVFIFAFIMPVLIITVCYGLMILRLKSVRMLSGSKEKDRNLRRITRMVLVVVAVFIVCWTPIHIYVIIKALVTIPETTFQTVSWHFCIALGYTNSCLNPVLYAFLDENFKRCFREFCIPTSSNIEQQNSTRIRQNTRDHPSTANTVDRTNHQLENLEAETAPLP
# Test: Antagonist activity at OPRM1 (unknown origin) by cAMP assay
Value kind: IC50 (µM)
Provide only the numeric value, understood in µM.

For reference, reported IC50 for C/C(=N\N=c1/[nH]c2cc(F)c(F)cc2n1C)c1ccc(F)cn1 stands at 3.1

====

# Test: Cytotoxicity against CD-1 mouse Primary hepatocyte assessed as inhibition of cell growth incubated for 72 hrs by MTT assay
# Format: toxicity, cell-based
# Applied conditions: primary hepatocytes
Exercise: for every item that follows, state its recorded IC50 at 72 h.

For reference, reported IC50 at 72 h for C/C(=N\Nc1nc2cc(F)c(F)cc2n1C)c1ncccn1 stands at > 1000 nM

For reference, reported IC50 at 72 h for C/C(=N\N=c1/[nH]c2cc(F)c(F)cc2n1C)c1ccc(F)cn1 stands at > 1000 nM

====

Value kind: pIC50
The meaning of pIC50 here: minus log10 of the concentration in molar units.

Record C/C(=N\N=c1/[nH]c2cc(F)c(F)cc2n1C)c1ccc(F)cn1 has Prostaglandin G/H synthase 1 (Homo sapiens) pIC50 equal to 5.51

Record C/C(=N\Nc1nc2cc(F)c(F)cc2n1C)c1ncccn1 has Prostaglandin G/H synthase 1 (Homo sapiens) pIC50 equal to 5.54

====

# Study system: UniProt P25101
# Test: Agonist activity at EDNRA (unknown origin) by calcium flux assay
Value kind: pEC50
The meaning of pEC50 here: minus log10 of the concentration in molar units.

For reference, reported pEC50 for C/C(=N\N=c1/[nH]c2cc(F)c(F)cc2n1C)c1ccc(F)cn1 stands at 5.19

====

# Study system: hERG (KCNH2) (Homo sapiens)
# Sequence (Q12809 whole entry): as the sequence (Q12809 whole entry) above
# Test: Inhibition of hERG transfected in HEK293 cells at 30 uM by patch clamp assay relative to control
# Type: toxicity, cell-based
# Applied conditions: HEK293 cells transfected with hERG
Value kind: inhibition at 30 µM

Record C/C(=N\Nc1nc2cc(F)c(F)cc2n1C)c1ncccn1 has hERG (KCNH2) (Homo sapiens) inhibition at 30 µM equal to < 50%

====

# Test system: MCF7
# Test: Cytotoxicity against human MCF7 cells assessed as inhibition of cell growth incubated for 72 hrs by MTT assay
# Type: functional, cell-based
# Applied conditions: MCF7, 72 h
Simple rule here: IC50 less than 20 nM is yes (1), otherwise no (0).

Prompt: In the record for C/C(=N\N=c1/[nH]c2cc(F)c(F)cc2n1C)c1cccs1 , is IC50 less than 20 nM?
Completion: no (0)

Prompt: In the record for C/C(=N\N=c1/[nH]c2cc(F)c(F)cc2n1C)c1cocn1 , is IC50 less than 20 nM?
Completion: no (0)

Prompt: In the record for C/C(=N\N=c1/[nH]c2cc(F)c(F)cc2n1C)c1ccc(C(=O)O)cn1 , is IC50 less than 20 nM?
Completion: no (0)

Prompt: In the record for C/C(=N\N=c1/[nH]c2cc(F)c(F)cc2n1C)c1ncccn1 , is IC50 less than 20 nM?
Completion: yes (1)

Prompt: In the record for C/C(=N\N=c1/[nH]c2cc(F)c(F)cc2n1C)c1ccc(-c2nnn[nH]2)cn1 , is IC50 less than 20 nM?
Completion: no (0)

Prompt: In the record for C/C(=N\N=c1/sc2ccccc2n1C)c1ccc(F)cn1 , is IC50 less than 20 nM?
Completion: no (0)

Prompt: In the record for C/C(=N\N=c1/[nH]c2cc(F)c(F)cc2n1C)c1ccccc1 , is IC50 less than 20 nM?
Completion: no (0)

Prompt: In the record for C/C(=N\Nc1nc2ccccc2n1C)c1ccc(F)cn1 , is IC50 less than 20 nM?
Completion: yes (1)

Prompt: In the record for COC(=O)c1ccc(/C(C)=N/N=c2\[nH]c3cc(F)c(F)cc3n2C)nc1 , is IC50 less than 20 nM?
Completion: yes (1)

Prompt: In the record for C/C(=N\N=c1/[nH]c2cc(F)c(F)cc2n1C)c1ccc(C(=O)N2CCOCC2)cn1 , is IC50 less than 20 nM?
Completion: no (0)

Prompt: In the record for C/C(=N\N=c1/[nH]c2cc(F)c(F)cc2n1C)c1ccc(-c2cnn(C)c2)cn1 , is IC50 less than 20 nM?
Completion: yes (1)

Prompt: In the record for C/C(=N\N=c1/[nH]c2cc(F)c(F)cc2n1C)c1ccc(C(N)=O)cn1 , is IC50 less than 20 nM?
Completion: yes (1)

Prompt: In the record for Cn1c(N2N=C(c3ccccn3)CC2=O)nc2ccccc21 , is IC50 less than 20 nM?
Completion: no (0)

Prompt: In the record for C/C(=N\N=c1/[nH]c2cc(F)c(F)cc2n1C)c1ccc(F)cn1 , is IC50 less than 20 nM?
Completion: yes (1)

Prompt: In the record for C/C(=N\Nc1nc2ccccc2n1C)c1ccccn1 , is IC50 less than 20 nM?
Completion: no (0)

Prompt: In the record for C/C(=N\N=c1/[nH]c2cc(F)c(F)cc2n1C)c1ccc(OCCCS(C)(=O)=O)cn1 , is IC50 less than 20 nM?
Completion: no (0)

Prompt: In the record for C/C(=N\N=c1/[nH]c2cc(F)c(F)cc2n1C)c1ccccn1 , is IC50 less than 20 nM?
Completion: yes (1)

Prompt: In the record for C/C(=N\N=c1/[nH]c2cc(F)c(F)cc2n1C)c1ccncn1 , is IC50 less than 20 nM?
Completion: yes (1)

Prompt: In the record for Cn1c(NNC(=O)c2ccccn2)nc2ccccc21 , is IC50 less than 20 nM?
Completion: no (0)

Prompt: In the record for C/C(=N\N=c1/[nH]c2cc(F)c(F)cc2n1C)c1cn(C)cn1 , is IC50 less than 20 nM?
Completion: no (0)

Prompt: In the record for C/C(=N\Nc1nc2cc(F)ccc2n1C)c1ccc(F)cn1 , is IC50 less than 20 nM?
Completion: yes (1)

Prompt: In the record for C/C(=N\Oc1nc2ccccc2n1C)c1ccccn1 , is IC50 less than 20 nM?
Completion: no (0)

Prompt: In the record for C/C(=N\N=c1/[nH]c2cc(Cl)c(Cl)cc2n1C)c1ccc(F)cn1 , is IC50 less than 20 nM?
Completion: yes (1)

Prompt: In the record for C/C(=N\N=c1/[nH]c2cc(F)c(F)cc2n1C)c1ccncc1 , is IC50 less than 20 nM?
Completion: no (0)

Prompt: In the record for C/C(=N\N=c1/[nH]c2cc(F)c(F)cc2n1C)c1ccc(OCCCN2CCOCC2)cn1 , is IC50 less than 20 nM?
Completion: no (0)

Prompt: In the record for C/C(=N\N=c1n(C)c2ccccc2n1C)c1ccc(F)cn1 , is IC50 less than 20 nM?
Completion: no (0)

Prompt: In the record for C/C(=N\N=c1/[nH]c2cc(F)c(F)cc2n1C)c1cccnc1 , is IC50 less than 20 nM?
Completion: no (0)
